- protocol.summary: first-order primary biodegradation rate constant k (sorption-corrected, fDis-corrected) (d-1); higher = faster biodegradation
- measurement.conditions: river segment: Switzerland (CH) C_Contam; incubation temperature 17 °C
Structures can show the parent of a compound that is named as a salt.
quantity.measured: first-order primary biodegradation rate constant k

In the examples that follow, each entry is paired with its recorded first-order primary biodegradation rate constant k.
{"columns": ["compound", "numeric.readout"],
 "data": [
  ["CCNc1nc(Cl)nc(NC(C)C)n1", 0.0513],
  ["c1ccc([C@H]2CN3CCSC3=N2)cc1", 0.0196],
  ["Cc1ccc(S(=O)(=O)O)cc1", 0.764],
  ["COc1cc(NS(=O)(=O)c2ccc(N)cc2)nc(OC)n1", 0.0158],
  ["Cc1ccc(-c2nc3ccc(C)cn3c2CC(=O)N(C)C)cc1", 0.0346]
]}

(a) CCCCC(=O)N(Cc1ccc(-c2ccccc2-c2nnn[nH]2)cc1)[C@H](C(=O)O)C(C)C
(b) NS(=O)(=O)c1cc(C(=O)O)c(NCc2ccco2)cc1Cl [Furosemide]
(c) CN(C)CCCC1(c2ccc(F)cc2)OCc2cc(C#N)ccc21 (stereo not given)
(d) Nc1ccc(S(=O)(=O)Nc2nccs2)cc1
(e) CCOC(=O)CC(O)(CC(=O)OCC)C(=O)OCC [Triethyl citrate]
In: Descending sort on first-order primary biodegradation rate constant k required. Provide the labels, sequenced as the question asks.
Out: a, d, b, c, e
